# testedOn: gp120 (Human immunodeficiency virus type 1 group M subtype B)
# Construct: made in house; host or cells: Drosophila S2 cells
# Type: binding, HIV-1
# assaySetup: ITC, 25° C., PBS pH 7.4
*1 amine or outer side, *2 acyl side, *3 side chain or, on linkers, in order; H or OH if unused. Where a SMILES comes first, the peptide text is derived from it. [ ]: non-standard residue; d: D form. X1 = O=C([C@@H]1C[C@H](n2cc([C]34[CH]5[CH]6[CH]7[CH]3[Fe]6754389%10[CH]4[CH]3[CH]8[CH]9[CH]4%10)nn2)CN1[*:1])[*:2]; Cit = NC(=O)NCCC[C@H](N)C(=O)O
ΔH overview
The reply should be a number in kcal/mol, with the unit left off.

Observe how each entry below is paired with its result.
CC[C@H](C)[C@H](NC(=O)[C@H](CC(N)=O)NC(=O)[C@H](CC(N)=O)NC(=O)[C@@H](N)CCCNC(N)=O)C(=O)N1C[C@@H](n2cc([C]34[CH]5[CH]6[CH]7[CH]3[Fe]6754389%10[CH]4[CH]3[CH]8[CH]9[CH]4%10)nn2)C[C@H]1C(=O)N[C@@H](Cc1c[nH]c2ccccc12)C(=O)N[C@@H](CO)C(N)=O (stereo partly drawn) [UM24] (H-[Cit]NNI[X1]WS-NH2; N-terminus and C-terminus assumed)
-16.7
CC[C@H](C)[C@H](N)C(=O)N[C@@H](CC(N)=O)C(=O)N[C@@H](CC(N)=O)C(=O)N[C@H](C(=O)N1C[C@@H](n2cc([C]34[CH]5[CH]6[CH]7[CH]3[Fe]6754389%10[CH]4[CH]3[CH]8[CH]9[CH]4%10)nn2)C[C@H]1C(=O)N[C@@H](Cc1c[nH]c2ccccc12)C(N)=O)[C@@H](C)CC (stereo partly drawn) [UM15] (H-INNI[X1]W-NH2)
-16.6
CC[C@H](C)[C@H](NC(=O)[C@@H](N)CCCNC(=N)N)C(=O)N[C@@H](CC(N)=O)C(=O)N[C@@H](CC(N)=O)C(=O)N[C@H](C(=O)N1C[C@@H](n2cc([C]34[CH]5[CH]6[CH]7[CH]3[Fe]6754389%10[CH]4[CH]3[CH]8[CH]9[CH]4%10)nn2)C[C@H]1C(=O)N[C@@H](Cc1c[nH]c2ccccc12)C(N)=O)[C@@H](C)CC (stereo partly drawn) [UM12] (H-RINNI[X1]W-NH2; N-terminus and C-terminus assumed)
-19.7
CC[C@H](C)[C@H](NC(=O)[C@H](CC(N)=O)NC(=O)[C@@H](N)CC(N)=O)C(=O)N1C[C@@H](n2cc([C]34[CH]5[CH]6[CH]7[CH]3[Fe]6754389%10[CH]4[CH]3[CH]8[CH]9[CH]4%10)nn2)C[C@H]1C(=O)N[C@@H](Cc1c[nH]c2ccccc12)C(N)=O (stereo partly drawn) [UM17] (H-NNI[X1]W-NH2)
-13.2
CC[C@H](C)[C@H](NC(=O)[C@H](CC(N)=O)NC(=O)[C@@H](N)CC(N)=O)C(=O)N1C[C@@H](n2cc([C]34[CH]5[CH]6[CH]7[CH]3[Fe]6754389%10[CH]4[CH]3[CH]8[CH]9[CH]4%10)nn2)C[C@H]1C(=O)N[C@@H](Cc1c[nH]c2ccccc12)C(=O)N[C@@H](CO)C(N)=O (stereo partly drawn) [UM31] (H-NNI[X1]WS-NH2)
-13.8

**Q:** Item under review: CC[C@H](C)[C@H](NC(=O)[C@@H](N)CC(N)=O)C(=O)N1C[C@@H](n2cc([C]34[CH]5[CH]6[CH]7[CH]3[Fe]6754389%10[CH]4[CH]3[CH]8[CH]9[CH]4%10)nn2)C[C@H]1C(=O)N[C@@H](Cc1c[nH]c2ccccc12)C(=O)N[C@@H](CO)C(N)=O (stereo partly drawn) [UM41] (H-NI[X1]WS-NH2) . Reported ΔH?
**A:** -6.1

---

# testedOn: HIV-1 YU2 gp120 (Human immunodeficiency virus type 1 group M subtype B, UniProt P35961)
# Construct: made in house; host or cells: Drosophila S2 cells
# Assay type: binding
# assaySetup: Table 11, dissociation rate
*1 amine or outer side, *2 acyl side, *3 side chain or, on linkers, in order; H or OH if unused. Where a SMILES comes first, the peptide text is derived from it. [ ]: non-standard residue; d: D form. X1 = O=C([C@@H]1C[C@H](n2cc([C]34[CH]5[CH]6[CH]7[CH]3[Fe]6754389%10[CH]4[CH]3[CH]8[CH]9[CH]4%10)nn2)CN1[*:1])[*:2]; Cit = NC(=O)NCCC[C@H](N)C(=O)O
measuredQuantity: dissociation rate constant (koff)

CC[C@H](C)[C@H](NC(=O)[C@@H](N)CC(N)=O)C(=O)N1C[C@@H](n2cc([C]34[CH]5[CH]6[CH]7[CH]3[Fe]6754389%10[CH]4[CH]3[CH]8[CH]9[CH]4%10)nn2)C[C@H]1C(=O)N[C@@H](Cc1c[nH]c2ccccc12)C(=O)N[C@@H](CO)C(N)=O (stereo partly drawn) [UM41] (H-NI[X1]WS-NH2)
Not detectable
CC[C@H](C)[C@H](NC(=O)[C@H](CC(N)=O)NC(=O)[C@H](CC(N)=O)NC(=O)[C@@H](N)CCCNC(N)=O)C(=O)N1C[C@@H](n2cc([C]34[CH]5[CH]6[CH]7[CH]3[Fe]6754389%10[CH]4[CH]3[CH]8[CH]9[CH]4%10)nn2)C[C@H]1C(=O)N[C@H](Cc1c[nH]c2ccccc12)C(=O)N[C@@H](CO)C(N)=O (stereo partly drawn) [UM24-DW] (H-[Cit]NNI[X1][dW]S-NH2; N-terminus assumed)
Not detectable
CC[C@H](C)[C@H](NC(=O)[C@H](CC(N)=O)NC(=O)[C@H](CC(N)=O)NC(=O)[C@@H](N)Cc1ccccc1)C(=O)N1C[C@@H](n2cc([C]34[CH]5[CH]6[CH]7[CH]3[Fe]6754389%10[CH]4[CH]3[CH]8[CH]9[CH]4%10)nn2)C[C@H]1C(=O)N[C@@H](Cc1c[nH]c2ccccc12)C(=O)N[C@@H](CO)C(N)=O (stereo partly drawn) [UM28] (H-FNNI[X1]WS-NH2)
4.3E−03 ± 0.8 1/S

---

# testedOn: HIV-1 YU2 gp120 (Human immunodeficiency virus type 1 group M subtype B)
# Construct: made in house; host or cells: Drosophila S2 cells
# Assay type: binding
# assaySetup: Table 11, dissociation rate
# Procedure: Surface plasmon resonance (SPR) interaction analyses were performed on a Biacore® 3000 optical biosensor (GE). All experiments were carried out at 25° C. using standard PBS, pH 7.4, with 0.005% Surfactant P20. Regeneration of the surface was achieved by a one 5-second pulse of 10 mM glycine, pH 1.5. SPR data analyses were performed using BIAEvaluation 4.0 software (GE). […] Experimental data were fitted to a simple 1:1 binding model with a parameter included for mass transport. […]
*1 amine or outer side, *2 acyl side, *3 side chain or, on linkers, in order; H or OH if unused. Where a SMILES comes first, the peptide text is derived from it. [ ]: non-standard residue; d: D form. X1 = O=C([C@@H]1C[C@H](n2cc([C]34[CH]5[CH]6[CH]7[CH]3[Fe]6754389%10[CH]4[CH]3[CH]8[CH]9[CH]4%10)nn2)CN1[*:1])[*:2]
measuredQuantity: dissociation rate constant (koff)

Observe how each entry below is paired with its result.
CC[C@H](C)[C@H](NC(=O)[C@@H](N)CCCNC(=N)N)C(=O)N[C@@H](CC(N)=O)C(=O)N[C@@H](CC(N)=O)C(=O)N[C@H](C(=O)N1C[C@@H](n2cc([C]34[CH]5[CH]6[CH]7[CH]3[Fe]6754389%10[CH]4[CH]3[CH]8[CH]9[CH]4%10)nn2)C[C@H]1C(=O)N[C@@H](Cc1c[nH]c2ccccc12)C(N)=O)[C@@H](C)CC (stereo partly drawn) [UM12] (H-RINNI[X1]W-NH2; N-terminus and C-terminus assumed)
1.8E−03 ± 1.3 1/S
CC[C@H](C)[C@H](N)C(=O)N[C@@H](CC(N)=O)C(=O)N[C@H](C(=O)N1C[C@@H](n2cc([C]34[CH]5[CH]6[CH]7[CH]3[Fe]6754389%10[CH]4[CH]3[CH]8[CH]9[CH]4%10)nn2)C[C@H]1C(=O)N[C@@H](Cc1c[nH]c2ccccc12)C(=O)N[C@@H](CO)C(N)=O)[C@@H](C)CC (stereo partly drawn) [UM35] (H-INI[X1]WS-NH2; N-terminus assumed)
Not detectable
CC[C@H](C)[C@H](NC(=O)[C@H](CC(N)=O)NC(=O)[C@H](CC(N)=O)NC(=O)[C@@H](N)CCCNC(=N)N)C(=O)N1C[C@@H](n2cc([C]34[CH]5[CH]6[CH]7[CH]3[Fe]6754389%10[CH]4[CH]3[CH]8[CH]9[CH]4%10)nn2)C[C@H]1C(=O)N[C@@H](Cc1c[nH]c2ccccc12)C(=O)N[C@@H](CO)C(N)=O (stereo partly drawn) [UM22] (H-RNNI[X1]WS-NH2; N-terminus and C-terminus assumed)
6.8E−03 ± 0.4 1/S
CC[C@H](C)[C@H](NC(=O)[C@H](CC(N)=O)NC(=O)[C@H](CC(N)=O)NC(=O)[C@@H](N)CCCCN)C(=O)N1C[C@@H](n2cc([C]34[CH]5[CH]6[CH]7[CH]3[Fe]6754389%10[CH]4[CH]3[CH]8[CH]9[CH]4%10)nn2)C[C@H]1C(=O)N[C@@H](Cc1c[nH]c2ccccc12)C(=O)N[C@@H](CO)C(N)=O (stereo partly drawn) [UM27] (H-KNNI[X1]WS-NH2)
8.8E−03 ± 2.1 1/S
CC[C@H](C)[C@H](NC(=O)[C@@H](N)CCCNC(=N)N)C(=O)N[C@@H](CC(N)=O)C(=O)N[C@@H](CC(N)=O)C(=O)N[C@H](C(=O)N1C[C@@H](n2cc([C]34[CH]5[CH]6[CH]7[CH]3[Fe]6754389%10[CH]4[CH]3[CH]8[CH]9[CH]4%10)nn2)C[C@H]1C(N)=O)[C@@H](C)CC (stereo partly drawn) [UM16] (H-RINNI[X1]-NH2; N-terminus assumed)
Not detectable

Now, please, on to the next molecule.
**Q:** Item under review: CC[C@H](C)[C@H](N)C(=O)N[C@@H](CC(N)=O)C(=O)N[C@@H](CC(N)=O)C(=O)N[C@H](C(=O)N1C[C@@H](n2cc([C]34[CH]5[CH]6[CH]7[CH]3[Fe]6754389%10[CH]4[CH]3[CH]8[CH]9[CH]4%10)nn2)C[C@H]1C(=O)N[C@@H](Cc1c[nH]c2ccccc12)C(N)=O)[C@@H](C)CC (stereo partly drawn) [UM15] (H-INNI[X1]W-NH2) . Reported dissociation rate constant (koff)?
**A:** 3.3E−03 ± 0.3 1/S

Reference source: patent US8951963B2
